System: Salmonella typhimurium
assay protocol: Antibacterial activity against Salmonella typhimurium DT104 in the presence of NaCl by MH broth based assay
Type: functional, Salmonella enterica subsp. enterica serovar Typhimurium
experimental setup: Salmonella enterica
Peptide text beside a SMILES is read from it.
Listed next: entries and their corresponding MIC.
measure name: MIC

molecule	readout value
CC(C)[C@H](N)C(=O)N[C@@H](CCCCN)C(=O)N[C@H](C(=O)N[C@@H](CCCCN)C(=O)N[C@H](C(=O)N[C@@H](CCCCN)C(=O)N[C@@H](CS)C(=O)N[C@H](C(=O)N[C@@H](CCCCN)C(=O)N[C@@H](CO)C(=O)NCC(=O)N[C@@H](CS)C(=O)N[C@@H](CCCCN)C(=O)N[C@H](C(=O)N[C@@H](CCCCN)C(=O)N[C@H](C(=O)N[C@@H](CCCCN)C(=O)N[C@H](C(N)=O)C(C)C)C(C)C)C(C)C)[C@@H](C)O)C(C)C)C(C)C (H-VKVKVKCTKSGCKVKVKV-NH2)	> 128 µg/mL
C[C@@H](O)[C@H](NC(=O)[C@H](CS)NC(=O)[C@H](CCCCN)NC(=O)[C@@H](N)Cc1c[nH]c2ccccc12)C(=O)N[C@@H](CCCCN)C(=O)N[C@@H](CO)C(=O)NCC(=O)N[C@@H](CS)C(=O)N[C@@H](CCCCN)C(=O)N[C@@H](Cc1c[nH]c2ccccc12)C(N)=O (H-WKCTKSGCKW-NH2)	> 128 µg/mL
C[C@@H](O)[C@H](NC(=O)[C@H](CS)NC(=O)[C@H](CCCCN)NC(=O)[C@H](Cc1c[nH]c2ccccc12)NC(=O)[C@H](CCCCN)NC(=O)[C@@H](N)Cc1c[nH]c2ccccc12)C(=O)N[C@@H](CCCCN)C(=O)N[C@@H](CO)C(=O)NCC(=O)N[C@@H](CS)C(=O)N[C@@H](CCCCN)C(=O)N[C@@H](Cc1c[nH]c2ccccc12)C(=O)N[C@@H](CCCCN)C(=O)N[C@@H](Cc1c[nH]c2ccccc12)C(N)=O (H-WKWKCTKSGCKWKW-NH2)	4 µg/mL
CC(C)[C@H](N)C(=O)N[C@@H](CCCCN)C(=O)N[C@@H](CS)C(=O)N[C@H](C(=O)N[C@@H](CCCCN)C(=O)N[C@@H](CO)C(=O)NCC(=O)N[C@@H](CS)C(=O)N[C@@H](CCCCN)C(=O)N[C@H](C(N)=O)C(C)C)[C@@H](C)O (H-VKCTKSGCKV-NH2)	> 128 µg/mL
CC(C)C[C@H](NC(=O)[C@H](CCCCN)NC(=O)[C@H](CC(C)C)NC(=O)[C@H](CCCCN)NC(=O)[C@H](CS)NC(=O)CNC(=O)[C@H](CO)NC(=O)[C@H](CCCCN)NC(=O)[C@@H](NC(=O)[C@H](CS)NC(=O)[C@H](CCCCN)NC(=O)[C@H](CC(C)C)NC(=O)[C@H](CCCCN)NC(=O)[C@@H](N)CC(C)C)[C@@H](C)O)C(N)=O (H-LKLKCTKSGCKLKL-NH2)	32 µg/mL
CC(C)[C@H](NC(=O)CNC(=O)[C@H](CC(N)=O)NC(=O)CNC(=O)[C@H](Cc1ccc(O)cc1)NC(=O)[C@H](Cc1ccc(O)cc1)NC(=O)[C@@H](N)CCCCN)C(=O)N[C@@H](Cc1c[nH]cn1)C(=O)N[C@@H](CS)C(=O)N[C@H](C(=O)N[C@@H](CCCCN)C(=O)N[C@@H](CO)C(=O)NCC(=O)N[C@@H](CS)C(=O)N[C@@H](CO)C(=O)N[C@H](C(=O)N[C@@H](CC(N)=O)C(=O)N[C@@H](Cc1c[nH]c2ccccc12)C(N)=O)C(C)C)[C@@H](C)O (H-KYYGNGVHCTKSGCSVNW-NH2)	> 128 µg/mL
CC(C)C[C@H](NC(=O)[C@H](CCCCN)NC(=O)[C@H](CS)NC(=O)CNC(=O)[C@H](CO)NC(=O)[C@H](CCCCN)NC(=O)[C@@H](NC(=O)[C@H](CS)NC(=O)[C@H](CCCCN)NC(=O)[C@@H](N)CC(C)C)[C@@H](C)O)C(N)=O (H-LKCTKSGCKL-NH2)	> 128 µg/mL
CC(C)[C@H](N)C(=O)N[C@@H](CCCCN)C(=O)N[C@H](C(=O)N[C@@H](CCCCN)C(=O)N[C@@H](CS)C(=O)N[C@H](C(=O)N[C@@H](CCCCN)C(=O)N[C@@H](CO)C(=O)NCC(=O)N[C@@H](CS)C(=O)N[C@@H](CCCCN)C(=O)N[C@H](C(=O)N[C@@H](CCCCN)C(=O)N[C@H](C(N)=O)C(C)C)C(C)C)[C@@H](C)O)C(C)C (H-VKVKCTKSGCKVKV-NH2)	> 128 µg/mL
CC(C)C[C@H](NC(=O)[C@H](CCCNC(=N)N)NC(=O)CNC(=O)CNC(=O)[C@@H](N)CCCNC(=N)N)C(=O)N[C@H]1CSSC[C@@H](C(=O)N[C@H](C(=O)NCC(=O)N[C@@H](CCCNC(=N)N)C(N)=O)C(C)C)NC(=O)[C@H](C(C)C)NC(=O)[C@@H]2CSSC[C@H](NC(=O)[C@H](Cc3ccc(O)cc3)NC1=O)C(=O)N[C@@H](CCCNC(=N)N)C(=O)N[C@@H](CCCNC(=N)N)C(=O)N[C@@H](CCCNC(=N)N)C(=O)N[C@@H](Cc1ccccc1)C(=O)N2	16 µg/mL
CC(C)C[C@H](NC(=O)[C@H](CCCCN)NC(=O)[C@H](CC(C)C)NC(=O)[C@H](CCCCN)NC(=O)[C@H](CC(C)C)NC(=O)[C@H](CCCCN)NC(=O)[C@H](CS)NC(=O)CNC(=O)[C@H](CO)NC(=O)[C@H](CCCCN)NC(=O)[C@@H](NC(=O)[C@H](CS)NC(=O)[C@H](CCCCN)NC(=O)[C@H](CC(C)C)NC(=O)[C@H](CCCCN)NC(=O)[C@H](CC(C)C)NC(=O)[C@H](CCCCN)NC(=O)[C@@H](N)CC(C)C)[C@@H](C)O)C(N)=O (H-LKLKLKCTKSGCKLKLKL-NH2)	> 128 µg/mL

====

assay protocol: Cytotoxicity against mouse RAW264.7 cells infected with Salmonella typhimurium DT104 assessed as cell viability at 1 times of MIC measured at 180 min by MTT assay
Assay type: toxicity, cell-based
experimental setup: RAW264.7 cells infected with Salmonella typhimurium DT104, read-out: Activity
Peptide text beside a SMILES is read from it.

compound	viability at 3 h, 1 times of MIC
CC(C)C[C@H](NC(=O)[C@H](CCCCN)NC(=O)[C@H](CC(C)C)NC(=O)[C@H](CCCCN)NC(=O)[C@H](CS)NC(=O)CNC(=O)[C@H](CO)NC(=O)[C@H](CCCCN)NC(=O)[C@@H](NC(=O)[C@H](CS)NC(=O)[C@H](CCCCN)NC(=O)[C@H](CC(C)C)NC(=O)[C@H](CCCCN)NC(=O)[C@@H](N)CC(C)C)[C@@H](C)O)C(N)=O (H-LKLKCTKSGCKLKL-NH2)	> 90%
C[C@@H](O)[C@H](NC(=O)[C@H](CS)NC(=O)[C@H](CCCCN)NC(=O)[C@H](Cc1c[nH]c2ccccc12)NC(=O)[C@H](CCCCN)NC(=O)[C@@H](N)Cc1c[nH]c2ccccc12)C(=O)N[C@@H](CCCCN)C(=O)N[C@@H](CO)C(=O)NCC(=O)N[C@@H](CS)C(=O)N[C@@H](CCCCN)C(=O)N[C@@H](Cc1c[nH]c2ccccc12)C(=O)N[C@@H](CCCCN)C(=O)N[C@@H](Cc1c[nH]c2ccccc12)C(N)=O (H-WKWKCTKSGCKWKW-NH2)	> 90%

====

System: Candida albicans
assay protocol: Antifungal activity against Candida albicans ATCC 10231 incubated overnight by standard microtiter dilution method
Assay type: functional
Peptide text beside a SMILES is read from it.
Some compounds, each annotated with its measured MIC.

compound	MIC (µg/mL)
C[C@@H](O)[C@H](NC(=O)[C@H](CS)NC(=O)[C@H](CCCCN)NC(=O)[C@H](Cc1c[nH]c2ccccc12)NC(=O)[C@H](CCCCN)NC(=O)[C@@H](N)Cc1c[nH]c2ccccc12)C(=O)N[C@@H](CCCCN)C(=O)N[C@@H](CO)C(=O)NCC(=O)N[C@@H](CS)C(=O)N[C@@H](CCCCN)C(=O)N[C@@H](Cc1c[nH]c2ccccc12)C(=O)N[C@@H](CCCCN)C(=O)N[C@@H](Cc1c[nH]c2ccccc12)C(N)=O (H-WKWKCTKSGCKWKW-NH2)	2
CC(C)[C@H](NC(=O)CNC(=O)[C@H](CC(N)=O)NC(=O)CNC(=O)[C@H](Cc1ccc(O)cc1)NC(=O)[C@H](Cc1ccc(O)cc1)NC(=O)[C@@H](N)CCCCN)C(=O)N[C@@H](Cc1c[nH]cn1)C(=O)N[C@@H](CS)C(=O)N[C@H](C(=O)N[C@@H](CCCCN)C(=O)N[C@@H](CO)C(=O)NCC(=O)N[C@@H](CS)C(=O)N[C@@H](CO)C(=O)N[C@H](C(=O)N[C@@H](CC(N)=O)C(=O)N[C@@H](Cc1c[nH]c2ccccc12)C(N)=O)C(C)C)[C@@H](C)O (H-KYYGNGVHCTKSGCSVNW-NH2)	16
CC(C)C[C@H](NC(=O)[C@H](CCCCN)NC(=O)[C@H](CC(C)C)NC(=O)[C@H](CCCCN)NC(=O)[C@H](CS)NC(=O)CNC(=O)[C@H](CO)NC(=O)[C@H](CCCCN)NC(=O)[C@@H](NC(=O)[C@H](CS)NC(=O)[C@H](CCCCN)NC(=O)[C@H](CC(C)C)NC(=O)[C@H](CCCCN)NC(=O)[C@@H](N)CC(C)C)[C@@H](C)O)C(N)=O (H-LKLKCTKSGCKLKL-NH2)	4
